List of recombinant UMI read abundance (log10) values.
- Measurement notes: recombinant UMI read abundance after kanamycin selection (control-corrected) (log10(CPM+1)); higher = more efficient recombination; extreme values may be limits of the assay; sequences stand for … in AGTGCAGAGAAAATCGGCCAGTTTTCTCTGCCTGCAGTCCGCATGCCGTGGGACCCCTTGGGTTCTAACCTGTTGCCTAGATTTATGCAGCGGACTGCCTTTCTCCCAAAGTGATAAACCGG…AGGTTGGTTTCACT; site = the 11-nt donor;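 also: IS621 bridge recombinase in Escherichia coli cells against a fixed T5 target plasmid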
Measure name: recombinant UMI read abundance (log10)

{"columns": ["Ordered residues", "Result"],
 "data": [
  ["TTCTAGGCATGGACCGGTTTTCCCGGTAATCCGTATTTGCG (site TTCTAGGCTCG)", 0.0116],
  ["GGGCATACATGGACCGGTTTTCCCGGTAATCCGTATTTGAC (site GGGCATACTGT)", 1.8],
  ["CCTAAAGCATGGACCGGTTTTCCCGGTAATCCGTATTTGAA (site CCTAAAGCTTT)", 0.699],
  ["GATCGACCATGGACCGGTTTTCCCGGTAATCCGTATTTGTC (site GATCGACCTGA)", 0],
  ["CTAGTACCATGGACCGGTTTTCCCGGTAATCCGTATTTGAC (site CTAGTATCTGT)", 2.88],
  ["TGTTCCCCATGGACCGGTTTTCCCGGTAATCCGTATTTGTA (site TGTTCACCTTA)", 0.00592],
  ["GTTAGAGCATGGACCGGTTTTCCCGGTAATCCGTATTTGTG (site GTTAGAGCTCA)", 1.74],
  ["CTAGTGCCATGGACCGGTTTTCCCGGTAATCCGTATTTGAC (site CTAGTATCTGT)", 0.948],
  ["GCCAGGCCATGGACCGGTTTTCCCGGTAATCCGTATTTGAA (site GCCAGGCCTTT)", 0.0165]
]}

Each recorded value in this set is attributed to the supplement of paper PMC11208160.
